# TESTED SYSTEM: FGFR1 (UniProt P11362)
# Sequence (P11362 whole entry, looked up): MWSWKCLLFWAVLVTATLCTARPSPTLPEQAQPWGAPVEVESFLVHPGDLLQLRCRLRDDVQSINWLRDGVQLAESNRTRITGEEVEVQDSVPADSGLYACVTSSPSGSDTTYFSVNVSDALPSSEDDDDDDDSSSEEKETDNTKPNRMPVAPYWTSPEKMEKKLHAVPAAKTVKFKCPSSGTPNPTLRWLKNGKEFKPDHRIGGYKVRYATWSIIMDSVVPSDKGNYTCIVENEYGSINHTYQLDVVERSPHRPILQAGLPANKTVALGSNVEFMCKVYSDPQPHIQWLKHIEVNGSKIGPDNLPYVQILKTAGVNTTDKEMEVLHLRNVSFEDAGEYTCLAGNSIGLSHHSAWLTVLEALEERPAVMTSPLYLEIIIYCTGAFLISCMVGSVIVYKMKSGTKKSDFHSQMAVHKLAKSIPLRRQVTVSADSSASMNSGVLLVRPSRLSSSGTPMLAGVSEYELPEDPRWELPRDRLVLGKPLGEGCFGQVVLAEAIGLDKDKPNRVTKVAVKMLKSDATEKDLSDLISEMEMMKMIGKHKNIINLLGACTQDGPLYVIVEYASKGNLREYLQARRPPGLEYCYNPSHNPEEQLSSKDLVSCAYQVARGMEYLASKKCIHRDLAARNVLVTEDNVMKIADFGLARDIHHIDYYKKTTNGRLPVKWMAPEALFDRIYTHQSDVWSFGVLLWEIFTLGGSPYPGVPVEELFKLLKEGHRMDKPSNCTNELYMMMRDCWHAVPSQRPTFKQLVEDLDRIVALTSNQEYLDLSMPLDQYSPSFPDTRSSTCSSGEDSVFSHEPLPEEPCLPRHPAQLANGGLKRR
# TEST METHOD NOTES: phosphorylation enrichment, bacterial display (enrichment ratio); higher = better substrate or ligand; peptides without Tyr show the background
Rule: criterion met for phosphorylation enrichment not less than 0.4, criterion not met for anything less.

Solved entries (count: 4):
>  <CHAIN>
ETDSEYVKLAK [C7orf57_Y70]

>  <ANSWER LABEL>
criterion not met

$$$$
>  <CHAIN>
DLDTEYGSGFP [RNASEH2A_Y206_D205E_YF]

>  <ANSWER LABEL>
criterion met

$$$$
>  <CHAIN>
GRTNIYKNKKD [SLC26A3_Y520]

>  <ANSWER LABEL>
criterion not met

$$$$
>  <CHAIN>
LHAAAYRNALA [UQCRC2_Y182]

>  <ANSWER LABEL>
criterion met

$$$$

Moving on to another sequence below.
INPUT: Please indicate if the recorded phosphorylation enrichment for ETWHNYHKFDS [MATR3_Y243_S240W] meets or exceeds 0.4.
OUTPUT: criterion met

---

# TESTED SYSTEM: Fes (UniProt P07332)
# Sequence (P07332 whole entry, looked up): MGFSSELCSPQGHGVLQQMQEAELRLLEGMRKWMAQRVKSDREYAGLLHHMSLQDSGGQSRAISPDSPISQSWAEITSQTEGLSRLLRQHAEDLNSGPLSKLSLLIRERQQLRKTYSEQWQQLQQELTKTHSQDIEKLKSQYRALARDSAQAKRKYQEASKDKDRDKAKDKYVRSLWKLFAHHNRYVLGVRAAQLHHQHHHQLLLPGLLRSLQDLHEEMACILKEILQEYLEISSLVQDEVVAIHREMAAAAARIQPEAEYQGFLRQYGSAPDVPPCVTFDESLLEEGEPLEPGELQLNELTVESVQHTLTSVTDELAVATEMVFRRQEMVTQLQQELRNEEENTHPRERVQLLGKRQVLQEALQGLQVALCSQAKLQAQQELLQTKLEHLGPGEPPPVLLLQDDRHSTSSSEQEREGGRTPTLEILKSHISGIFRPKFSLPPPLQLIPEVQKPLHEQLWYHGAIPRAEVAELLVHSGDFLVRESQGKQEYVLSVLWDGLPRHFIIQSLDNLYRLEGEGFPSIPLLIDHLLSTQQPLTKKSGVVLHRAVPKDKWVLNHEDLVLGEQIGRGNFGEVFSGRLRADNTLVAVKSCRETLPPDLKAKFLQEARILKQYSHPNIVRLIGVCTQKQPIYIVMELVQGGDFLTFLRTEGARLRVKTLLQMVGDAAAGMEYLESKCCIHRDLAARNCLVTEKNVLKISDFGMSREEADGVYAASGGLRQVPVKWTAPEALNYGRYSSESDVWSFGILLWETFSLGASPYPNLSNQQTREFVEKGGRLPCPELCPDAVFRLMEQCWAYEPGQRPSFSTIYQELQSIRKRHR
# TEST METHOD NOTES: phosphorylation enrichment, bacterial display (enrichment ratio); higher = better substrate or ligand; peptides without Tyr show the background
Rule: yes for phosphorylation enrichment not less than 0.8, no for anything less.

Solved entries (count: 6):
>  <CHAIN>
HIKHNYECLVY [XRCC5_Y416]

>  <ANSWER LABEL>
yes

$$$$
>  <CHAIN>
FTGNTYRVGDT [FN1_Y106_YF]

>  <ANSWER LABEL>
no

$$$$
>  <CHAIN>
KRYRIYHLATS [BRCA2_Y3009]

>  <ANSWER LABEL>
no

$$$$
>  <CHAIN>
IPGVEYLVSII [TNC_Y1775]

>  <ANSWER LABEL>
yes

$$$$
>  <CHAIN>
KAIDMYLMGCF [GABRB2_Y308]

>  <ANSWER LABEL>
yes

$$$$
>  <CHAIN>
LADKPYTFEYY [FXN_Y118_D122Y]

>  <ANSWER LABEL>
yes

$$$$

Moving on to another sequence below.
INPUT: Please indicate if the recorded phosphorylation enrichment for MTFQNYRQALF [FAM20C_Y279_G280R] meets or exceeds 0.8.
OUTPUT: yes

---

# Test system: Fer (mouse)
# TEST METHOD NOTES: phosphorylation enrichment, bacterial display (enrichment ratio); higher = better substrate or ligand; peptides without Tyr show the background
Give phosphorylation enrichment for every item shown.
Give bare numbers.

>  <CHAIN>
VDTPMYATMQR [TPO_Y55_A53P]

>  <phosphorylation enrichment>
0.706

$$$$
>  <CHAIN>
FDCKWYIPLTD [BCR_Y756_YF]

>  <phosphorylation enrichment>
0.66

$$$$
>  <CHAIN>
GSTLSYFGLAA [P2RX7_Y343]

>  <phosphorylation enrichment>
0.43

$$$$
>  <CHAIN>
IHHIDYFKKTT [FGFR1_Y653_YF]

>  <phosphorylation enrichment>
0.398

$$$$

As a next step, examine the sequence that follows.
INPUT: For the sequence shown here, FTGVEYSSCDT [EPHA3_Y937] , give the reported phosphorylation enrichment.
OUTPUT: 0.491

---

Give SH2 binding enrichment for every item shown.
# TESTED SYSTEM: Grb2 SH2 (UniProt P62993)
# Sequence (P62993 whole entry, looked up): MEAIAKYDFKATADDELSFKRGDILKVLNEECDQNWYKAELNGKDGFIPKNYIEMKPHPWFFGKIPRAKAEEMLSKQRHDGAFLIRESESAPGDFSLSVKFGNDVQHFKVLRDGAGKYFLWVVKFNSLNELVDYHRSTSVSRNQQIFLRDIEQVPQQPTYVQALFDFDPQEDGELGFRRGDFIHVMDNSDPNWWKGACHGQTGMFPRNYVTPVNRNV
# TEST METHOD NOTES: SH2 binding enrichment of the phosphorylated peptide, bacterial display (enrichment ratio); higher = better substrate or ligand; peptides without Tyr show the background

Solved cases (3 shown):
>  <CHAIN>
WQQQSYLDLGI [CTNNB1_Y30_S33L]

>  <RECORDED RESULT>
1.03

$$$$
>  <CHAIN>
PGRRFYVVACD [RNASE3_Y134]

>  <RECORDED RESULT>
1.05

$$$$
>  <CHAIN>
LERDIYNREEF [HLA-DPB1_Y59_Y57D]

>  <RECORDED RESULT>
0.841

$$$$

Dear colleague, could you send me SH2 binding enrichment for each of the items below? Thanks.
1. FFRRHYPLTTL [TNS4_Y644]
2. ATRKAYGQALA [TKT_Y321]
3. YIATQYSLRPR [LBR_Y166]
4. HSDYQYGQRSQ [PKP2_Y168_S169G]
5. LTELGYSFVTT [ACTA1_Y200_R198L]
6. KVQVSYKGDTK [HSPA1A_Y107_E110D]
7. QTLTDYDTRFF [CSNK2A3_Y131_I133T_YF]

OUTPUT:
1.15
0.965
0.762
1.01
0.797
0.949
0.862
